targetEntity: Adenosine receptor A1 (Rattus norvegicus, UniProt P25099)
Sequence (P25099 whole entry): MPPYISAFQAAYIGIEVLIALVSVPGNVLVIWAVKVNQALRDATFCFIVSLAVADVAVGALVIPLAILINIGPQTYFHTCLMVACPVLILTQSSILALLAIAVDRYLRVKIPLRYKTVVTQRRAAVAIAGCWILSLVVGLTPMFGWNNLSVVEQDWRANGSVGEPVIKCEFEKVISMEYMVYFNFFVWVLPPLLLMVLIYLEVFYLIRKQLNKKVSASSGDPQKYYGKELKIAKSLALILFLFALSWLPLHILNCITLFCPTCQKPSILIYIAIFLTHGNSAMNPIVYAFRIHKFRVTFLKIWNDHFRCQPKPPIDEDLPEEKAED
assayProcedure: Binding affinity for adenosine A1 receptor in vitro using rat brain membranes.
Format: cell membranes
pKi: −log10 of the molar value.
assayReadout: pKi

Here's what some known entries look like.
Cc1ccc(C)c(Cn2cc(CCNc3ncnc4c3ncn4[C@@H]3O[C@H](C(=O)NC4CC4)[C@@H](O)[C@H]3O)c3cc(C)ccc32)c1 :: 7.21
O=C(NC1CC1)[C@H]1OC(n2cnc3c(NCCc4cn(Cc5ccccc5)c5ccccc45)ncnc32)[C@H](O)[C@@H]1O (some centres undefined) :: 7.40
O=C(NC1CC1)[C@H]1OC(n2cnc3c(NCCc4cn(Cc5ccccn5)c5ccccc45)ncnc32)[C@H](O)[C@@H]1O (some centres undefined) :: 7.41
OC[C@H]1OC(n2cnc3c(NCCc4cn(Cc5ccccc5)c5ccccc45)ncnc32)[C@H](O)[C@@H]1O (some centres undefined) :: 7.30
COCCNC(=O)[C@H]1O[C@@H](n2cnc3c(NCCc4cn(Cc5ccc(Cl)cc5)c5ccccc45)ncnc32)[C@H](O)[C@@H]1O :: 6.05
Cc1ccc(Cn2cc(CCNc3ncnc4c3ncn4C3O[C@H](C(=O)NC4CC4)[C@@H](O)[C@H]3O)c3ccccc32)cc1 (some centres undefined) :: 6.89

P. Cc1ccc(C)c(Cn2cc(CC(C)Nc3ncnc4c3ncn4C3O[C@H](C(=O)NC4CC4)[C@@H](O)[C@H]3O)c3ccccc32)c1 (some centres undefined)
Q. COCCn1cc(CCNc2ncnc3c2ncn3[C@@H]2O[C@H](C(=O)NC3CC3)[C@@H](O)[C@H]2O)c2ccccc21
R. C=CCn1cc(CCNc2ncnc3c2ncn3C2O[C@H](C(=O)NC3CC3)[C@@H](O)[C@H]2O)c2ccccc21 (some centres undefined)
S. CNC(=O)[C@H]1O[C@@H](n2cnc3c(NCCc4cn(Cc5cc(C)ccc5C)c5ccccc45)ncnc32)[C@H](O)[C@@H]1O
T. O=C(NC1CC1)[C@H]1O[C@@H](n2cnc3c(NCCc4cn(C5CCCC5)c5ccccc45)ncnc32)[C@H](O)[C@@H]1O
Task: Your job: order these 5 records by pKi, ascending. Response format: the labels, sorted as the prompt asks.
Output: S, P, T, R, Q
(S: 5.85, P: 6.74, T: 6.96, R: 7.41, Q: 7.64)

###

targetEntity: Adenosine A2 receptor (Rattus norvegicus) (UniProt P29276+P30543)
assayProcedure: Percent displacement from adenosine A2 receptor at 10e-7 M in rat striatal membrane in vitro.
Assay type: cell membranes
appliedConditions: Striatum
assayReadout: Displacement (%)

I. O=C(NC1CC1)[C@H]1OC(n2cnc3c(NCCc4cn(Cc5ccc(Cl)cc5)c5ccc(Cl)cc45)ncnc32)[C@H](O)[C@@H]1O (some centres not stated)
II. O=C(NC1CC1)[C@H]1O[C@@H](n2cnc3c(NCCc4cn(Cc5cccc6ccccc56)c5ccccc45)ncnc32)[C@H](O)[C@@H]1O
Task: I'm curious, which of these has a smaller Displacement number: I or II ? Use the label to indicate which entry you chose.
Output: II
